assay.info: Volume of distribution at steady state in cynomolgus monkey at 0.25 mg/kg, iv pretreated with rifampicin 20 mg/kg, po 1 hr before
Format: ADME, organism-based, Macaca fascicularis
measurement.conditions: in vivo, read-out: Vdss
Starred links: 1 amine or outer side, 2 acyl side, 3 side chain; linkers in the order of their positions; H or OH if unused. Non-standard residues stand in square brackets, D forms with d. Residues, ends and D or L forms follow the SMILES beside them. *: point of attachment. Benzenesulfonyl(4-Cl,3-CF3) = O=S(=O)(c1ccc(Cl)c(C(F)(F)F)c1)*; γGlu = O=C(O)[C@H](CCC(=O)[*:2])N[*:1]; 4Pal = N[C@@H](Cc1ccncc1)C(=O)O; Tle = CC(C)(C)[C@H](N)C(=O)O; β3hP = O=C(O)C[C@@H]1CCCN1
readout.kind: Vd (L/kg)
Express your answer in L/kg, writing the number without its unit.

// Vd value for CC(C)(C)[C@H](NC(=O)[C@H](Cc1ccncc1)NC(=O)CNC(=O)CC[C@H](NS(=O)(=O)c1ccc(Cl)c(C(F)(F)F)c1)C(=O)O)C(=O)N1CCC[C@H]1CC(N)=O ({Benzenesulfonyl(4-Cl,3-CF3)-γGlu}-G[4Pal][Tle][β3hP]-NH2) : 0.208
